Assignment: determine reported Kd for the given substances.
Biological target: ATAD2 bromodomain (BRD), residues 981–1108 (Homo sapiens, UniProt Q6PL18)
Construct: Residues 981–1108 encoding the 128 amino acid ATAD2 BRD were PCR amplified; GST (with PreScission Protease site) (N, cleaved yes); made in house; host or cells: E. coli Rosetta 2(DE3) pLysS (non-codon-optimized) or BL21(DE3) pLysS (codon-optimized)
Sequence (Q6PL18 981-1108): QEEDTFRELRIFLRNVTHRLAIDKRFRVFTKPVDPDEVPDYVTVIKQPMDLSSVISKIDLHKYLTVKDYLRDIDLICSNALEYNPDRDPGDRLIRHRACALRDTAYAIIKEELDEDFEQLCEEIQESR
Assay: ITC of histone peptides with the wild-type ATAD2 bromodomain
Type: binding
Conditions: SD
No end group written: not given here.
Respond numerically; units are µM and should not be typed.

Noted for SGRGK(Ac)QGGKARA-NH2 [H2AK5ac (res 1–12)] : its Kd reads 38.9

Data point: SGRGKGGK(Ac)GL-NH2 [H4K8ac (res 1–10)] ; Kd = 1130

The measurements presented in this section are drawn from paper PMC8430952.
